assayedTarget: SARS-CoV-2 Beta (B.1.351) variant prefusion stabilized spike trimer protein (UniProt P0DTC2 14-1213)
testProtocol: ELISA
I'd appreciate it if you could supply pEC50 values for the items below.
Answers are plain numbers, as −log10 of the molar value.

Sample answers from the record:
binder	reported
6-C19-A (antibody, V domains shown) VH: QIQLVQSGPELKKPGETVKISCKASGNTFTTAGMQWVQKMPGKGFKWIGWINTHSGEPKYAEDFKGRFAFSLETSASTAYLQISNLKNEDTATYFCARYGDYYYFDCWGQGTTLTVSS VL: DIQMTQSPASLSASVGETVTITCRASGNIHNYLAWYQQKQGKSPQLLVYNAKTLADGVPSRFSGSGSGTQYSLKINSLQPEDFGSFYCQHFWTTPWSFGGGTKLEIK	8.82
4-A22-A (antibody, V domains shown) VH: EVQLQQSGPELVKPGASVKMSCKASGYTFTSYVMHWVKQKPGQGLEWIGYINPYNDGTEYNEKFKGKATLTSDKSSSTAYMELSSLTSEDSAVYYCAREAYRYFDVWGTGTTVTVSS VL: DIQMTQSPASLSVSVGETVTITCRASENIYSNLAWYQQKQGKSPQLLVYAATNLAEGVPSRFSGSGSGTQYSLKINSLQSEDFGSYYCQHFWGTPWTFGGGTKLEIK	8.22
2-O15-A (antibody, V domains shown) VH: QVQLQQSGAELVRPGASVKLSCKASGYTFTDCEMHWVKQTPVHGLEWIGVIDPETGDTAYNQKFKGKATLTADKSSSTAYMELRSLTSEDSAVYYCTRRRDYGNPYWYFDVWGAGTTVTVSS VL: EIVLTQSPALMAASPGEKVTITCSVSSSISSSNLHWYQQKSGTSPKPWIYGTSNLASGVPVRFSGSGSGTSYSLTISSMEAEDAATYYCQQWTSYPYTFGSGTKLEIK	9.23
2-B16-B (antibody, V domains shown) VH: EVQLQQSGAELVRPGSSVKMSCKTSGYTFTSYGINWVKQRPGQGLEWIGYIYIGNGYTAYNEKFKGKATLTSDTSSSTAYMQLSSLTSEDSAIYFCARDGTRDAMDYWGQGTSVTVSS VL: DIQMTQSPASLSASVGETVTITCRASENIYSNLAWYQQKQGKSPQLLVYAATNLADGVPSRFSGSGSGTQFSLKINSLQPEDFGSYYCQHFYSSPWTFGGGTKLEIK	9.57

Now take the following binder into account.
In: Bench note: what pEC50 did 9-G24-A (antibody, V domains shown) VH: QVQLQQSGAELVRPGASVKLSCKASGYTFTDYEMHWVKQTPVHGLEWIGVIDPETGDTAYNQKFKDKATLTADKSSSTAYMELRSLTSEDSAVYYCARRRDYGNPYWYFDVWGAGTAVTVSS VL: EIVLTQSPALMAASPGEKVTITCSASSSISSSNLHWYQQKSGTSPKPWIYGTSNLASGVPVRFSGSGSGTSYSLTISSMEAEDAATYVCQQWSNYPYTFGSGTKLEIK show?
Out: 9.25
